molecular target: human ALK2 (Homo sapiens (Human), UniProt Q04771); experiment: LANCE Ultra ULight enzymatic assay (FOP Enzymatic Assay), ALK2; assay type: biochemical; settings: read-out: ALK2 IC50 (nM) at 10 μM ATP; 10 μM ATP
Sequence (Q04771 21-509): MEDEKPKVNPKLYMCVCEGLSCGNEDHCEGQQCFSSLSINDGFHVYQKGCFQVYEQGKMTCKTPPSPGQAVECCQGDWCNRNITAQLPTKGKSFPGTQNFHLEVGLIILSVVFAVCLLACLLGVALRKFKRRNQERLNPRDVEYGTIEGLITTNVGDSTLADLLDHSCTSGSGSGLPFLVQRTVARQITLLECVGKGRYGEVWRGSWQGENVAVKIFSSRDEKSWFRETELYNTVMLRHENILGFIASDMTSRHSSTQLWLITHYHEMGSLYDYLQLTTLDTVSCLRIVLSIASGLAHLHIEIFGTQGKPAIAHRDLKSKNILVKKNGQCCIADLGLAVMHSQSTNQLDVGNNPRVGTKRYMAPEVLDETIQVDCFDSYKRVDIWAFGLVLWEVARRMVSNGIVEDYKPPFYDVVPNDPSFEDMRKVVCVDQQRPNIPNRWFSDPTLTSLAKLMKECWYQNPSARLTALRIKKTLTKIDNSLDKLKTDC
compounds and their reported IC50
// return numeric value only (unit: nM, not printed)

Here is how some compounds turned out for IC50.
>>> test_result("OCc1cccc2c(-c3cnn4cc(-c5ccc(N6CCNCC6)cc5)cnc34)ccnc12")
62
>>> test_result("CC(C)(CN1CCCCC1)Oc1ccc(-c2cnc3c(-c4cccc5ncccc45)cnn3c2)cc1")
106
>>> test_result("Cc1ccc2c(-c3cnn4cc(-c5ccc(OCCN6CCNCC6)cn5)cnc34)cccc2n1")
643
>>> test_result("CNCc1ccc2c(-c3cnn4cc(-c5ccc(N6CCNCC6)cc5)cnc34)ccnc2c1")
906

Query: Would you please give the reported IC50 of Nc1ccc2c(-c3cnn4cc(-c5ccc(N6CCNCC6)cc5)cnc34)ccnc2c1 with human ALK2 (Homo sapiens (Human), UniProt Q04771)?
Reply: 44

Query: Would you please give the reported IC50 of NC(=O)c1cccc2c(-c3cnn4cc(-c5ccc(N6CCNCC6)cc5)cnc34)ccnc12 with human ALK2 (Homo sapiens (Human), UniProt Q04771)?
Reply: 26

Query: Would you please give the reported IC50 of Cc1cc(-c2cnn3cc(-c4ccc(N5CCNCC5)nc4)cnc23)c2ccccc2n1 with human ALK2 (Homo sapiens (Human), UniProt Q04771)?
Reply: 43

Query: Would you please give the reported IC50 of Clc1cc(-c2cnn3cc(-c4ccc(N5CCNCC5)cc4)cnc23)c2ccccc2n1 with human ALK2 (Homo sapiens (Human), UniProt Q04771)?
Reply: 24

====

target: human ALK2 (Homo sapiens (Human), UniProt Q04771); assay: LANCE Ultra ULight enzymatic assay (FOP Enzymatic Assay), ALK2; type: biochemical; details: 10 μM ATP
experimental endpoint: IC50
The number alone won't do; follow it with the unit.

>>> test_result("[2H]c1ccc2c(-c3cnn4cc(-c5ccc(O[C@H]6CCNC6)cn5)cnc34)cccc2n1 [Compound 65]")
"34 nM"

Query: Give me measured IC50, please, for this compound: [2H]c1ccc2c(-c3cnn4cc(-c5ccc(OC6CCNCC6)cn5)cnc34)cccc2n1 [Compound 61]
Reply: 41 nM

Query: Give me measured IC50, please, for this compound: [2H]c1ccc2c(-c3cnn4cc(-c5ccc(O[C@@H]6CCNC6)cn5)cnc34)cccc2n1 [Compound 63]
Reply: 45 nM

Query: Give me measured IC50, please, for this compound: [2H]c1ccc2c(-c3cnn4cc(-c5ccc(OCCN6CCCCC6)cn5)cnc34)cccc2n1 [Compound 47]
Reply: 94 nM

Query: Give me measured IC50, please, for this compound: [2H]c1ccc2c(-c3cnn4cc(-c5ccc(OCCN6CCNCC6)cn5)cnc34)cccc2n1 [compound 49]
Reply: 157 nM

Query: Give me measured IC50, please, for this compound: [2H]c1ccc2c(-c3cnn4cc(-c5ccc(OCCN6CCOCC6)cn5)cnc34)cccc2n1 [Compound 55]
Reply: 120 nM

Query: Give me measured IC50, please, for this compound: [2H]c1ccc2c(-c3cnn4cc(-c5ccc(OC6CCN(C)CC6)cn5)cnc34)cccc2n1 [Compound 59]
Reply: 43 nM

Query: Give me measured IC50, please, for this compound: [2H]c1ccc2c(-c3cnn4cc(-c5ccc(OC(C)(C)CN6CCCCC6)cn5)cnc34)cccc2n1 [Compound 57]
Reply: 28 nM

====

target: human ALK2 (Homo sapiens (Human), UniProt Q04771); assay: LANCE Ultra ULight enzymatic assay (FOP Enzymatic Assay), ALK2; assay type: biochemical
molecules and their reported pIC50
Just so you know, pIC50 here is -log10 of the concentration in molar units; reply with that number alone.

>>> test_result("[2H]c1ccc2c(-c3cnn4cc(-c5ccc(N6[C@H](C)CNC[C@@H]6C)cc5)cnc34)cccc2n1")
8.10

Attention now turns to another entry.
Query: Give me measured pIC50, please, for this molecule: [2H]c1cc(-c2cnn3cc(-c4ccc(N5CCNCC5)nc4)cnc23)c2ccccc2n1
Reply: 7.40

====

target: UniProt:Q04771; assay: LANCE Ultra ULight enzymatic assay (FOP Enzymatic Assay), ALK2; format: biochemical; conditions: read-out: ALK2 IC50 (nM) at 10 μM ATP; 10 μM ATP
compounds and their reported log10 of IC50
Kindly note that the scale is log10 and the underlying IC50 is in nM.

>>> test_result("c1cc(-c2cnn3cc(-c4ccc(N5CCNCC5)cc4)cnc23)c2ccc(CN3CCCC3)cc2n1 [Compound 21]")
3.33

Query: Would you please give the reported log10 of IC50 of Clc1cc(-c2cnc3c(-c4ccnc5ccccc45)cnn3c2)ccc1OCCN1CCCCC1 [Compound 45] with UniProt:Q04771?
Reply: 1.75

Query: Would you please give the reported log10 of IC50 of Cc1ccc2c(-c3cnn4cc(-c5ccc(O[C@H]6CCNC6)cn5)cnc34)cccc2n1 [Compound 66] with UniProt:Q04771?
Reply: 2.01

Query: Would you please give the reported log10 of IC50 of c1ccc2c(-c3cnn4cc(-c5ccc(OCCN6CCNCC6)nc5)cnc34)ccnc2c1 [Compound 41] with UniProt:Q04771?
Reply: 1.34

Query: Would you please give the reported log10 of IC50 of Cc1ccc2c(-c3cnn4cc(-c5ccc(N6[C@H](C)CNC[C@@H]6C)cc5)cnc34)cccc2n1 [Compound 54] with UniProt:Q04771?
Reply: 1.51

Query: Would you please give the reported log10 of IC50 of C[C@@H]1CNC[C@H](C)N1c1ccc(-c2cnc3c(-c4ccnc5ccccc45)cnn3c2)cn1 [Compound 33] with UniProt:Q04771?
Reply: 1.34

Query: Would you please give the reported log10 of IC50 of Cc1ccc2c(-c3cnn4cc(-c5ccc(OCCN6CCOCC6)cn5)cnc34)cccc2n1 [Compound 56] with UniProt:Q04771?
Reply: 2.75

Query: Would you please give the reported log10 of IC50 of Clc1cc(-c2cnc3c(-c4cccc5ncccc45)cnn3c2)ccc1N1CCNCC1 [Compound 36] with UniProt:Q04771?
Reply: 1.66

Query: Would you please give the reported log10 of IC50 of COc1ccc2c(-c3cnn4cc(-c5ccc(N6[C@H](C)CNC[C@@H]6C)cc5)cnc34)cccc2n1 [Compound 67] with UniProt:Q04771?
Reply: 2.20

====

target: UniProt Q04771; assay: LANCE Ultra ULight enzymatic assay (FOP Enzymatic Assay), ALK2; type: biochemical; conditions: read-out: ALK2 IC50 (nM) at 10 μM ATP; 10 μM ATP
Label Met when IC50 < 100 nM; otherwise Not met.

Below, 5 molecules whose answers are already recorded.
>>> group_label("CN1CCN(CCOc2ccc(-c3cnc4c(-c5cccc6ncccc56)cnn4c3)cn2)CC1 [Compound 44]")
"Met"
>>> group_label("CN(C)Cc1ccc2c(-c3cnn4cc(-c5ccc(N6CCNCC6)cc5)cnc34)ccnc2c1 [Compound 19]")
"Not met"
>>> group_label("Fc1cc(-c2cnc3c(-c4ccnc5ccccc45)cnn3c2)ccc1N1CCNCC1 [Compound 39]")
"Met"
>>> group_label("Cc1ccc2c(-c3cnn4cc(-c5ccc(OC6CCNCC6)cn5)cnc34)cccc2n1 [Compound 62]")
"Not met"
>>> group_label("OCCNCc1ccc2c(-c3cnn4cc(-c5ccc(N6CCNCC6)cc5)cnc34)ccnc2c1 [Compound 14]")
"Not met"

Now, please, on to the next molecule.
Query: Bench note: check whether C(#Cc1cnc2c(-c3ccnc4ccccc34)cnn2c1)CN1CCNCC1 [Compound 4] shows IC50 below 100 nM
Reply: Met

====

biological target: UniProt:Q04771; assay: LANCE Ultra ULight enzymatic assay (FOP Enzymatic Assay), ALK2; type: biochemical; settings: read-out: ALK2 IC50 (nM) at 10 μM ATP; 10 μM ATP
Categorized via IC50: bucket A: < 30 nM; bucket B: ≥ 30 nM and < 100 nM; bucket C: ≥ 100 nM

Below, 8 molecules whose answers are already recorded.
>>> group_label("C[C@@H]1CNC[C@H](C)N1c1ccc(-c2cnc3c(-c4cccc5[nH]c(=O)ccc45)cnn3c2)cc1")
"bucket B"
>>> group_label("Cc1ccc2c(-c3cnn4cc(-c5ccc(O[C@@H]6CCNC6)cn5)cnc34)cccc2n1")
"bucket C"
>>> group_label("c1ccc2c(-c3cnn4cc(-c5ccc(N6CCNCC6)nc5)cnc34)ccnc2c1")
"bucket A"
>>> group_label("c1cc(-c2cnn3cc(-c4ccc(OCCN5CCCCC5)cc4)cnc23)c2cccnc2c1")
"bucket B"
>>> group_label("CN1CCN(CCOc2ccc(-c3cnc4c(-c5ccnc6ccccc56)cnn4c3)cn2)CC1")
"bucket C"
>>> group_label("Oc1cc(-c2cnn3cc(-c4ccc(N5CCNCC5)cc4)cnc23)c2ccccc2n1")
"bucket C"
>>> group_label("NCc1ccc2c(-c3cnn4cc(-c5ccc(N6CCNCC6)cc5)cnc34)ccnc2c1")
"bucket C"
>>> group_label("c1ccc2c(-c3cnn4cc(-c5ccc(C6CCNCC6)cc5)cnc34)ccnc2c1")
"bucket C"

Query: Which class does Fc1cc(-c2cnc3c(-c4cccc5ncccc45)cnn3c2)ccc1N1CCNCC1 fall in?
Reply: bucket B
